- measured target: Pin1 (Homo sapiens, UniProt Q13526)
- Construct: purchased Anaspec
- Sequence (Q13526 whole entry): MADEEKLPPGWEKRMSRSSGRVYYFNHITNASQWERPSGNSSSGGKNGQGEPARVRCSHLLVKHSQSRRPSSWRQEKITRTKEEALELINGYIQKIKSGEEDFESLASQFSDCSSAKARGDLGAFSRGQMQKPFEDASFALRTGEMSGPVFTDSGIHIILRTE
- test summary: Evaluation of Pin1 enzyme inhibitory activity (Sensolyte Green Pin1 assay kit)
- Assay type: biochemical
- protocol conditions: concentration at which the Pin1 enzyme activity is inhibited; 2 hours at room temperature, fluorescence 490 nm/520 nm; read-out: Pin 1 inhibition
pIC50: −log10 of the molar value.
measured quantity: pIC50

The compound listed as CN1CCN(CCCOc2ccc(S(=O)(=O)NCCc3c[nH]c4ccc(Cl)cc34)cc2)CC1 [Example 158] has a reported pIC50 of > 6.00

The compound listed as O=S(=O)(NCCCc1c[nH]c2ccc(Cl)cc12)c1ccc(OCCCN2CCC(F)CC2)cc1 [Example 80] has a reported pIC50 of 5.00 to 6.00

The compound listed as O=S(=O)(NCCCc1c[nH]c2ccc(Cl)cc12)c1ccc(CCCCN2CCNCC2)cc1 [Example 91] has a reported pIC50 of > 6.00

The compound listed as Cc1nccn1CCCOc1ccc(S(=O)(=O)NCCCc2c[nH]c3ccc(Cl)cc23)cc1 [Example 161] has a reported pIC50 of > 6.00

The compound listed as O=C(NCCCc1c[nH]c2ccc(Cl)cc12)c1ccc(OCCCN2CCNCC2)cc1 [Example 144] has a reported pIC50 of 5.00 to 6.00

The compound listed as CN1CCN(CCCOc2ccc(S(=O)(=O)NCCCc3c[nH]c4c(Cl)cc(Cl)cc34)cc2)CC1 [Example 165] has a reported pIC50 of > 6.00

The compound listed as O=S(=O)(NCCCc1c[nH]c2ccc(Cl)cc12)c1ccc(OCCCN2CCC(C(F)(F)F)CC2)cc1 [Example 81] has a reported pIC50 of 5.00 to 6.00

The compound listed as CCCCCOc1ccc(S(=O)(=O)NCCCc2c[nH]c3ccccc23)cc1 [Example 27] has a reported pIC50 of 4.00 to 5.00

----------
- measured target: Pin1 (Homo sapiens, UniProt Q13526)
- Construct: purchased Anaspec
- test summary: Evaluation of Pin1 enzyme inhibitory activity (Sensolyte Green Pin1 assay kit)
- Type: biochemical
- protocol conditions: concentration at which the Pin1 enzyme activity is inhibited; 2 hours at room temperature, fluorescence 490 nm/520 nm; read-out: Pin 1 inhibition
pIC50: −log10 of the molar value.
measured quantity: pIC50

The compound listed as O=S(=O)(NCC1CCc2[nH]c3ccc(F)cc3c2C1)c1ccc(OCCCN2CCNCC2)cc1 (stereo not shown) has a reported pIC50 of > 6.00

The compound listed as CC(C)N1CCN(CCOc2ccc(S(=O)(=O)NCCCc3c[nH]c4ccccc34)cc2)CC1 has a reported pIC50 of 4.00 to 5.00

The compound listed as O=S(=O)(NCCCc1c[nH]c2ccc(Cl)cc12)c1ccc(Oc2cccc(N3CCCC3)c2)cc1 has a reported pIC50 of 5.00 to 6.00

The compound listed as O=S(=O)(NCCCc1c[nH]c2ccc(Cl)cc12)c1ccc(CCCOc2ccncc2)cc1 has a reported pIC50 of > 6.00

The compound listed as COc1ccc2[nH]cc(C3CCN(S(=O)(=O)c4ccc(OCCCN5CCN(C)CC5)cc4)CC3)c2c1 has a reported pIC50 of 4.00 to 5.00

The compound listed as O=S(=O)(NCCCc1c[nH]c2ccc(Cl)cc12)c1ccc(OCCCN2CCN(CC(F)(F)F)CC2)cc1 has a reported pIC50 of 5.00 to 6.00

The compound listed as CN1CCN(c2cc(Br)cc(Oc3ccc(S(=O)(=O)NCCCc4c[nH]c5ccc(Cl)cc45)cc3)c2)CC1 has a reported pIC50 of > 6.00

The compound listed as CN(C)CCCOc1ccc(S(=O)(=O)NCCCc2c[nH]c3ccccc23)cc1 has a reported pIC50 of 4.00 to 5.00

The compound listed as O=S(=O)(NCCCc1c[nH]c2cc(Cl)c(Cl)cc12)c1ccc(OCCCN2CCNCC2)cc1 has a reported pIC50 of > 6.00

The compound listed as CN1CCN(CCCOc2ccc(S(=O)(=O)NCCCc3c[nH]c4ccccc34)cc2)CC1 has a reported pIC50 of 5.00 to 6.00

The compound listed as CN1CCC(CCOc2ccc(S(=O)(=O)NCCCc3c[nH]c4ccccc34)cc2)CC1 has a reported pIC50 of 4.00 to 5.00

The compound listed as CN1CCN(CCCOc2ccc(S(=O)(=O)Nc3ccccc3C(C)(C)c3c[nH]c4ccc(Cl)cc34)cc2)CC1 has a reported pIC50 of 5.00 to 6.00

The compound listed as CN1CCN(CCCOc2ccc(S(=O)(=O)NCCCn3cnc4ccccc43)cc2)CC1 has a reported pIC50 of < 4.00

The compound listed as O=S(=O)(NCCCc1n[nH]c2ccc(Cl)cc12)c1ccc(OCCCN2CCNCC2)cc1 has a reported pIC50 of > 6.00

The compound listed as CCCCOc1ccc(S(=O)(=O)NCCCc2cccnc2)cc1 has a reported pIC50 of < 4.00

The compound listed as O=S(=O)(NCCCc1c[nH]c2ccc(F)cc12)c1ccc(OCCCC2CCNCC2)cc1 has a reported pIC50 of 5.00 to 6.00

----------
- System: A2780 cells (ovarian cancer cells)
- test summary: Cell viability of A2780 cells (Cell-titer Glo)
- Assay type: cell-based
- protocol conditions: Homo sapiens, A2780; Table 5; read-out: A2780 cell concentration
measured quantity: IC50

The molecule listed as O=S(=O)(NCCCc1c[nH]c2ccc(Cl)cc12)c1ccc(Oc2cccc(N3CCNCC3)c2)cc1 [Example 121] has a reported IC50 of < 10 µM

The molecule listed as O=S(=O)(NCCCc1c[nH]c2ccc(F)cc12)c1ccc(OCCCN2CCNCC2)cc1 [Example 61] has a reported IC50 of < 10 µM

The molecule listed as CN1CCN(CCCOc2ccc(S(=O)(=O)NCC3CCc4[nH]c5ccc(Cl)cc5c4C3)cc2)CC1 (centres unmarked) [Example 177] has a reported IC50 of < 10 µM

The molecule listed as CN1CCC(CCCOc2ccc(S(=O)(=O)NCCCc3c[nH]c4ccc(F)cc34)cc2)CC1 [Example 59] has a reported IC50 of < 10 µM

The molecule listed as CN1CCN(c2cc(Oc3ccc(S(=O)(=O)NCCCc4c[nH]c5ccc(Cl)cc45)cc3)cc(N3CCN(C)CC3)c2)CC1 [Example 130] has a reported IC50 of < 10 µM

The molecule listed as CN1CCN(CCCOc2ccc(S(=O)(=O)NCCCc3c[nH]c4c(Cl)cc(Cl)cc34)cc2)CC1 [Example 165] has a reported IC50 of < 10 µM

The molecule listed as O=S(=O)(NCC1CCc2[nH]c3ccc(Cl)cc3c2C1)c1ccc(OCCCN2CCNCC2)cc1 (centres unmarked) [Example 178] has a reported IC50 of < 10 µM

The molecule listed as O=S(=O)(NCCCc1c[nH]c2ccc(Cl)cc12)c1ccc(OCCCN2CCCC2)cc1 [Example 100] has a reported IC50 of < 10 µM

The molecule listed as O=S(=O)(NCCCc1c[nH]c2ncc(Cl)cc12)c1ccc(OCCCN2CCNCC2)cc1 [Example 170] has a reported IC50 of < 10 µM

The molecule listed as CN1CCN(CCCOc2ccc(S(=O)(=O)NCCCc3c[nH]c4ccc(Br)cc34)cc2)CC1 [Example 154] has a reported IC50 of < 10 µM

The molecule listed as CN1CCN(c2cccc(Nc3ccc(S(=O)(=O)NCCCc4c[nH]c5ccc(Cl)cc45)cc3)c2)CC1 [Example 123] has a reported IC50 of < 10 µM

The molecule listed as C[C@H]1CN(CCCOc2ccc(S(=O)(=O)NCCCc3c[nH]c4ccc(Cl)cc34)cc2)CCN1 [Example 109] has a reported IC50 of < 10 µM

The molecule listed as O=S(=O)(NCCCc1c[nH]c2ccc(Br)cc12)c1ccc(OCCCN2CCNCC2)cc1 [Example 153] has a reported IC50 of < 10 µM

The molecule listed as CN1CCN(CCCOc2ccc(S(=O)(=O)NCCCc3c[nH]c4ccc(F)cc34)cc2)CC1 [Example 56] has a reported IC50 of < 10 µM

The molecule listed as CN1CCN(CCCNc2ccc(S(=O)(=O)NCCCc3c[nH]c4ccc(Cl)cc34)cc2)CC1 [Example 98] has a reported IC50 of < 10 µM

The molecule listed as O=S(=O)(NCCCc1c[nH]c2ccc(Cl)cc12)c1ccc(OCCCC2CCNCC2)cc1 [Example 93] has a reported IC50 of < 10 µM

The molecule listed as Cc1ncn(CCCOc2ccc(S(=O)(=O)NCCCc3c[nH]c4ccc(Cl)cc34)cc2)c1C [Example 175] has a reported IC50 of < 10 µM

The molecule listed as Cc1nc(C)n(CCCOc2ccc(S(=O)(=O)NCCCc3c[nH]c4ccc(Cl)cc34)cc2)c1C [Example 176] has a reported IC50 of < 10 µM

The molecule listed as O=S(=O)(NCCCc1c[nH]c2ccc(Cl)cc12)c1ccc(OCCCN2CCCNCC2)c(F)c1 [Example 106] has a reported IC50 of < 10 µM

The molecule listed as O=S(=O)(NCCCc1c[nH]c2ccc(Cl)cc12)c1ccc(CCCCC2CCNCC2)cc1 [Example 99] has a reported IC50 of < 10 µM

The molecule listed as O=S(=O)(NCCCc1c[nH]c2c(Cl)cc(Cl)cc12)c1ccc(OCCCN2CCNCC2)cc1 [Example 164] has a reported IC50 of < 10 µM

The molecule listed as CN1CCN(C[C@H](O)COc2ccc(S(=O)(=O)NCCCc3c[nH]c4ccc(Cl)cc34)cc2)CC1 [Example 173] has a reported IC50 of < 10 µM

The molecule listed as O=S(=O)(NCCCc1c[nH]c2ccc(Cl)cc12)c1ccc(OCCCN2CCC(O)CC2)cc1 [Example 75] has a reported IC50 of < 10 µM

The molecule listed as CN1CCN(CCCOc2ccc(S(=O)(=O)NCCCc3n[nH]c4ccc(Cl)cc34)cc2)CC1 [Example 167] has a reported IC50 of < 10 µM

The molecule listed as CN1CCN(CCCOc2ccc(S(=O)(=O)NCCCc3c[nH]c4ncc(Cl)cc34)cc2)CC1 [Example 169] has a reported IC50 of < 10 µM

The molecule listed as O=S(=O)(NCCCc1c[nH]c2ccc(Cl)cc12)c1ccc(OCCCN2CCNCC2)cc1 [Example 70] has a reported IC50 of < 10 µM

The molecule listed as CN1CCCN(CCCOc2ccc(S(=O)(=O)NCCCc3c[nH]c4ccc(Cl)cc34)cc2)CC1 [Example 83] has a reported IC50 of < 10 µM

The molecule listed as C[C@@H]1CN(CCCOc2ccc(S(=O)(=O)NCCCc3c[nH]c4ccc(Cl)cc34)cc2)CCN1 [Example 108] has a reported IC50 of < 10 µM

The molecule listed as CN1CCN(CCCOc2ccc(S(=O)(=O)NCCCc3c[nH]c4ccc(Cl)cc34)cc2)CC1 [Example 66] has a reported IC50 of < 10 µM
